// values below are reported Righting reflex duration
- Test system: Sprague-Dawley rats
- Test: Pharmacological characteristics at equivalent doses (2ED50), Group A compounds
- Format: in vivo
- Cond: 2ED50, tail vein
Observable: Righting reflex duration (min)

>>> df
                                   compound               target  unit_name  numeric_readout
0  C#CC1(OC(=O)c2cc(F)nn2[C@H](C)c2ccccc2)COC1  Sprague-Dawley rats        min             3.01
1  CC(=O)C1=C(OC(=O)c2ccnn2[C@H](C)c2ccccc2)CCC1  Sprague-Dawley rats        min             1.19
2  CC#CC(C)(C)OC(=O)c1c(F)cnn1[C@H](C)c1ccccc1  Sprague-Dawley rats        min             3.21
3  C[C@H](c1ccccc1)n1nc(F)cc1C(=O)OC(C)(C)C  Sprague-Dawley rats        min             1.48
4       C[C@H](c1ccccc1)n1nccc1C(=O)OCC1CC1  Sprague-Dawley rats        min             2.73
5     CC#CCOC(=O)c1c(F)cnn1[C@H](C)c1ccccc1  Sprague-Dawley rats        min             0.71
6  COC(=O)C1(OC(=O)c2cncn2[C@H](C)c2ccccc2)CC1 [CPMM, cyclopropyl methoxycarbonyl metamidate, reference compound]  Sprague-Dawley rats        min             1.62
7  COC(=O)C1=C(OC(=O)c2ccnn2[C@H](C)c2ccccc2)CCC1  Sprague-Dawley rats        min             1.15

###

- System: SD rats
- Cond: after 1 hour continuous infusion at 2 times the MIR, SD rats
Observable: Recovery time after stopping infusion

                                   compound        result
0  COC(=O)C1(OC(=O)c2cncn2[C@H](C)c2ccccc2)CC1 [CPMM, cyclopropyl methoxycarbonyl metamidate, reference compound]  10 to 15 min
1  CCOC(=O)c1cncn1C(C)c1ccccc1 (stereo not shown) [Etomidate, reference compound]  30 to 40 min
2  CCOCC(=O)c1ccnn1[C@H](C)c1ccccc1 [Compound C2]  20 to 30 min
3  CCOCC(=O)c1cncn1[C@H](C)c1ccccc1 [Compound C34]  22 to 28 min

###

// values below are reported Adverse reaction: Tremor
- Test system: Sprague-Dawley rats
- Test: Pharmacological effect and adverse reactions under the equivalent dose (2ED50), Group C compounds
- Format: in vivo
- Cond: equivalent dose (2ED50), number of rats of n = 8
Observable: Adverse reaction: Tremor

>>> df
                                   compound                observable  result
0        C/C=C\C(=O)c1cncn1[C@H](C)c1ccccc1  Adverse reaction: Tremor       0
1        C#CCOCC(=O)c1cncn1[C@H](C)c1ccccc1  Adverse reaction: Tremor       0
2     C#CCOCC(=O)c1c(F)ncn1[C@H](C)c1ccccc1  Adverse reaction: Tremor       0
3  CC(=O)COCC(=O)c1cc(F)nn1[C@H](C)c1ccccc1  Adverse reaction: Tremor       2
4       CCOCC(=O)c1c(F)ncn1[C@H](C)c1ccccc1  Adverse reaction: Tremor       0
5          CCOCC(=O)c1cncn1[C@H](C)c1ccccc1  Adverse reaction: Tremor       0
6      C[C@H](c1ccccc1)n1cncc1C(=O)COCC1CC1  Adverse reaction: Tremor       1
7  CC1OC1C(=O)c1cncn1[C@H](C)c1ccccc1 (stereo partly shown)  Adverse reaction: Tremor       1
8       CC#CCOCC(=O)c1cncn1[C@H](C)c1ccccc1  Adverse reaction: Tremor       0
9     CC(=O)COCC(=O)c1cncn1[C@H](C)c1ccccc1  Adverse reaction: Tremor       2
